- assayTarget: T-type channel alpha1I (CaV 3.3) (Homo sapiens)
- Sequence (Q9P0X4 whole entry): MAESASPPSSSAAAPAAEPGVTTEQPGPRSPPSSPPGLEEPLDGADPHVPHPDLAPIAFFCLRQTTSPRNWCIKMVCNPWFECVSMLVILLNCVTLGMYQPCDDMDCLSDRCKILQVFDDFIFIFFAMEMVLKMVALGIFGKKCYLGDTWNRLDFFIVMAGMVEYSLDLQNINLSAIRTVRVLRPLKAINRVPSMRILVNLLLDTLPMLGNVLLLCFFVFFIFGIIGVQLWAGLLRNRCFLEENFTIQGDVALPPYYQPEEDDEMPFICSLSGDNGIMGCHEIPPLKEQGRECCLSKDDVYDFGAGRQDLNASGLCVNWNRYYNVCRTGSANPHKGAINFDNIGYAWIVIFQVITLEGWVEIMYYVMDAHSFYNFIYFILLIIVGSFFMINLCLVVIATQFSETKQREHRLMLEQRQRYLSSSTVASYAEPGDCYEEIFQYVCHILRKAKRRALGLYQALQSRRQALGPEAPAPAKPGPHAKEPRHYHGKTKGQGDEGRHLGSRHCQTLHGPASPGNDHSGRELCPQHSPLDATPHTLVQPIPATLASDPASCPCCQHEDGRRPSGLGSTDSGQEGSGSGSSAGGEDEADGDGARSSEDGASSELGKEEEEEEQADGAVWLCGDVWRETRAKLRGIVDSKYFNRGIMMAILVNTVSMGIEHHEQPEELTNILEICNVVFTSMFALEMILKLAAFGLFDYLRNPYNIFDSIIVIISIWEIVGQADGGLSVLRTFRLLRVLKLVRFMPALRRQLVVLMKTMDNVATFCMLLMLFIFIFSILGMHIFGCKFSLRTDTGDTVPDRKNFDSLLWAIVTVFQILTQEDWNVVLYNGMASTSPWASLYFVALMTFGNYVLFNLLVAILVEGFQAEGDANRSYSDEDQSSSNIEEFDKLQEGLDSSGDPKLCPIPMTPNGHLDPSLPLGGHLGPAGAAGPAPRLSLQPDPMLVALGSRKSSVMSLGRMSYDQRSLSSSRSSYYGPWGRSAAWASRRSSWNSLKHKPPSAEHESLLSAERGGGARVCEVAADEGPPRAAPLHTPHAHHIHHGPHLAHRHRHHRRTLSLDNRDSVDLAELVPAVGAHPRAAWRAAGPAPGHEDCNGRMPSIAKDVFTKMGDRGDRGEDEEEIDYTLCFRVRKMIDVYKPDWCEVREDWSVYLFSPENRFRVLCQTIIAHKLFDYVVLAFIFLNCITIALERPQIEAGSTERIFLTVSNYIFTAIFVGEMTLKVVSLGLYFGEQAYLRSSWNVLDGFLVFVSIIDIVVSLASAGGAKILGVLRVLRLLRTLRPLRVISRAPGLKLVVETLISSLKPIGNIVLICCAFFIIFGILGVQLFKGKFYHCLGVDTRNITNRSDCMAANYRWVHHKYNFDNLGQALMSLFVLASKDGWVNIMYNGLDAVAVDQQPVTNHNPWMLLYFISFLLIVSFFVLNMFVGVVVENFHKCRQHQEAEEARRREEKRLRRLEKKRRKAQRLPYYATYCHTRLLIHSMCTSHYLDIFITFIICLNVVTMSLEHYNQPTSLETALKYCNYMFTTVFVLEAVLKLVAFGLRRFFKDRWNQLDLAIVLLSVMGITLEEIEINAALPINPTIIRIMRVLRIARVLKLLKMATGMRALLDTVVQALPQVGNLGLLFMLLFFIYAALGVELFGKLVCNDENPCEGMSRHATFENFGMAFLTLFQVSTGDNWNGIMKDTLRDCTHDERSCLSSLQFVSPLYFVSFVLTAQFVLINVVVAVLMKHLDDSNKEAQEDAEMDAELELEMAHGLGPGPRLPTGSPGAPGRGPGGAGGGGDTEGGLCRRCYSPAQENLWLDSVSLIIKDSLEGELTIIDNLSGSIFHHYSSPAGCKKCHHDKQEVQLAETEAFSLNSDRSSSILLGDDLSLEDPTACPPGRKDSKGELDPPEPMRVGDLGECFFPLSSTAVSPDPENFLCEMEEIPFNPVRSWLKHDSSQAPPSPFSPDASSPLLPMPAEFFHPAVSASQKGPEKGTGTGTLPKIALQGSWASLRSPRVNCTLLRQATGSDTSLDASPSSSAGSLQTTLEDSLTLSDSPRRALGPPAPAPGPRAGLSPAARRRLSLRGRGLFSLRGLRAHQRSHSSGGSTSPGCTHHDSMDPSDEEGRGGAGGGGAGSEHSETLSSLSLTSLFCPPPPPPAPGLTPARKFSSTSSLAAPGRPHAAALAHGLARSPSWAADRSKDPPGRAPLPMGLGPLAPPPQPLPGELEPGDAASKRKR
- procedureText: FLIPR Ca2+ Flux Assay
- setupConditions: alpha1I subtype; read-out: FLIPR alpha1I IP
quantityName: IC50 (nM)
I only need the number, in nM, no unit after it.

C[C@@H](NC(=O)Cc1ccc(-c2cc3ccccc3n2C)cc1)c1ccc(OCC(F)(F)F)cn1 | 36
C[C@@H](NC(=O)Cc1ccc(-n2nc(C3CC3)c3ccccc32)cc1)c1ccc(OCC(F)(F)F)cn1 | 73
Cc1nccnc1-c1ccc(CC(=O)N[C@H](C)c2ccc(OCC(F)(F)F)cn2)cc1 | 24

Note: attention shifts to another entry.
Specify reported IC50 for the compound shown: CC1=NOC(C)(c2ccc(CC(=O)N[C@H](C)c3ccc(OCC(F)(F)F)cn3)cc2)C1 (stereo partly shown)
41
